Data origin, for the record: ChEMBL document CHEMBL1122371

System name: UniProt:P00797
Sequence (P00797 whole entry): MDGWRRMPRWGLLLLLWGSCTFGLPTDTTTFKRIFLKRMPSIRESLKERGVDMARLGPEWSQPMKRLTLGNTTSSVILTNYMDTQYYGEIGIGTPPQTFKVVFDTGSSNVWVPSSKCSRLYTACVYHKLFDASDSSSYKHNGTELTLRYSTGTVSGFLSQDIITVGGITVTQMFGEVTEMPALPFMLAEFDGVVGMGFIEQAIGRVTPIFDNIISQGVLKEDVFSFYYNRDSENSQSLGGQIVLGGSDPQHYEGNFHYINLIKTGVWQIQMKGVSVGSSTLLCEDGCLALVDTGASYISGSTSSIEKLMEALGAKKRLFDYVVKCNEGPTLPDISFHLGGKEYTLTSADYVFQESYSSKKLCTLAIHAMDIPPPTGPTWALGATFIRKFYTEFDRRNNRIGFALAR
Property label: Ki (µM)
Entry rule: numbers only, all in µM.

Looking up COC(=O)[C@H](Cc1ccccc1)NC(=O)[C@@H](NC(=O)CC(O)CC(N)CC(C)C)C(C)C (stereo partly specified) , I found its Ki recorded as 95
